Source listed as patent US9120770B2.

# TARGET_OR_SYSTEM: PDE4D3 (Homo sapiens)
Recorded EC50 values for a group of compounds are listed next.

Data request, read-out EC50, for COCc1ncn(Cc2cnc(OC(F)F)c(-c3cccc(Cl)c3)c2)n1 0.1 to 1 µM

* * *

pEC50: −log10 of the molar value.
Below are compounds with their pEC50 as measured on PDE4D3 (Homo sapiens).

Example results:
> print(dat)
                               entry.smiles       target.or.system         value
1         COc1ncc(Cn2ccnc2)nc1-c1cccc(Cl)c1  PDE4D3 (Homo sapiens)        > 7.00
2  CCOc1ncc(Cn2cc(CO)nn2)cc1-c1cccc(OC(F)F)c1  PDE4D3 (Homo sapiens)        > 7.00
3  Nc1ncc(Cc2cnc(OC(F)F)c(-c3cccc(Cl)c3)c2)cn1  PDE4D3 (Homo sapiens)        > 7.00
4  CCOc1ncc(Cn2cnc(CF)n2)nc1-c1cccc(OC(F)F)c1  PDE4D3 (Homo sapiens)  5.00 to 6.00
5    CCOc1ncc(Cn2cc(CO)cn2)cc1-c1cccc(Cl)c1  PDE4D3 (Homo sapiens)        > 7.00

Field request: pEC50 | item: Nc1ncn(Cc2cnc(OC(F)F)c(-c3ccnc(OC(F)F)c3)c2)n1 6.00 to 7.00

// repeat for CCOc1cccc(-c2cc(Cn3cnc(N)n3)cnc2OC)c1 and report 6.00 to 7.00

Same read-out for CCOc1ncc(Cn2ncnc2C(F)(F)F)cc1-c1cccc(Cl)c1 ? > 7.00

Record: CCOc1ncc(Cn2ncnc2COC)cc1-c1cccc(OC(F)F)c1 6.00 to 7.00

* * *

# TARGET_OR_SYSTEM: PDE4D3 (Homo sapiens, UniProt Q08499)
# Sequence (Q08499 1-673 isoform Q08499-2): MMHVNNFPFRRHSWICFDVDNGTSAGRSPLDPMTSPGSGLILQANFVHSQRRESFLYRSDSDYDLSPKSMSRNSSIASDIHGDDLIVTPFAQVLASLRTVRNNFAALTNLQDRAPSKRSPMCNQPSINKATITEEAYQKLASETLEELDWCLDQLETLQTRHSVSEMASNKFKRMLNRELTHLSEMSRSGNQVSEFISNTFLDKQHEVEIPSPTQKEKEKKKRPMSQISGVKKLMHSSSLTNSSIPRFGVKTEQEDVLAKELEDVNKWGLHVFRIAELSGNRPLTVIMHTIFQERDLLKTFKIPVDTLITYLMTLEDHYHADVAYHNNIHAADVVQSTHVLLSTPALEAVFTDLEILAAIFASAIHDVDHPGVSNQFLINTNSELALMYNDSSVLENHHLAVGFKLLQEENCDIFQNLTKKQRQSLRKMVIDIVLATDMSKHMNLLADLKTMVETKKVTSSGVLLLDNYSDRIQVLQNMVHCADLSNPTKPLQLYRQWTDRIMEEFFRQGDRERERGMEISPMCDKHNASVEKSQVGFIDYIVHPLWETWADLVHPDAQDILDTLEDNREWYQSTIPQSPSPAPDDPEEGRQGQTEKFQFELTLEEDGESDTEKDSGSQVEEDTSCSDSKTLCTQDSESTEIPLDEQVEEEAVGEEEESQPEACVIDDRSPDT
pEC50: −log10 of the molar value.
We begin with a simple list: items and their reported pEC50.

Worked cases, pEC50 given:
> print(dat)
                                   compound  property         value
1  COC(=O)c1ncn(Cc2cnc(OC)c(-c3cccc(Cl)c3)c2)n1     pEC50  6.00 to 7.00
2  COc1ncc(Cn2cc(C(N)=O)cn2)cc1-c1cccc(Cl)c1     pEC50  6.00 to 7.00
3  CCOc1ncc(Cc2cnc(C(N)=O)nc2)nc1-c1cccc(Cl)c1     pEC50        > 7.00
4   COc1ncn(Cc2cnc(OC)c(-c3cccc(Cl)c3)c2)n1     pEC50  6.00 to 7.00
5  COc1ncc(Cn2cnc(C(F)F)n2)cc1-c1ccnc(OC(F)F)c1     pEC50        > 7.00

Which measured pEC50 value corresponds to COc1ncc(C(c2ccc(F)cc2)N(C)C)cc1-c1cccc(Cl)c1 (stereo not shown) ? 5.00 to 6.00

Can you handle COc1ncc(Cc2cnc(OC)c(-c3cccc(Cl)c3)n2)cn1 next? > 7.00

Continue with COc1ncc(C(O)c2ccc(F)cn2)cc1-c1cccc(Cl)c1 (stereo not shown) 5.00 to 6.00

Quick one: COc1ncc(Cc2cnc(C(N)=O)nc2)nc1-c1cccc(OC(F)F)c1 > 7.00

Next compound up: COc1ncc(Cc2cnc(OC)c(-c3cccc(Cl)c3)c2)cc1C 6.00 to 7.00

Entry to check: FC(F)Oc1ncc(Cc2cnccn2)cc1-c1cccc(Cl)c1 > 7.00

Please answer likewise for CCOc1ncc(Cn2cnc(CO)n2)nc1-c1cccc(Cl)c1 6.00 to 7.00

// next record COc1ncc(Cn2cncn2)cc1-c1cn[nH]c1 < 5.00

What do you get for CCOc1ncc(Cc2cnc(N)nc2)nc1-c1cccc(Cl)c1 ? > 7.00

Then what about the compound CNc1ncc(Cc2cnc(OC)c(-c3cccc(Cl)c3)c2)cn1 ? 6.00 to 7.00

Next compound up: CNc1ncc(Cc2cnc(OC(F)F)c(-c3cccc(Cl)c3)c2)cn1 > 7.00
